# testSummary: NCI Yeast Anticancer Drug Screen. Data for the mec2-1 strain (AID 157)
# testParameters: S. cerevisiae mec2-1 strain, at 50.0 µM, stronger effect = higher value
This is part of a sample that, as a whole, favours compounds with a hit. Of some 79,000 tested, about 15% had one in any assay.
measuredParameter: growth inhibition (%)
Express the result in % but write the number alone.

# example entries with known answers
CN(C)CCNC(=O)c1cccc(C(=O)Nc2ccccc2)c1[N+](=O)[O-]    -12.6
CCCC1=NC(C(F)(F)F)(C(F)(F)F)N=C(N2CCOCC2)O1    7.25
COc1cc(C=Nc2ccc(Cl)cc2)ccc1O    -25.9
CCOC(=O)c1ccc(NC(=O)Nc2ccc(F)c([N+](=O)[O-])c2)cc1    46.1

Give reported growth inhibition value for `OCc1cc2ccccc2c2c3c(ccc12)OCO3`
4.6

Kindly indicate its recorded growth inhibition. Item: `O=S(=O)(NC/C=C/c1ccccc1)c1ccccc1`
16.7

Give growth inhibition for the following compound: `O=C1CN(CCCN2CCOCC2)CC(=O)N2Cc3ccccc3CN12`
-3.8
